Listed here: items and their measured TGI.
- Test system: M14 melanoma
- test-summary: NCI tumour cell line growth inhibition, 48 h

[[record]]
item_smiles = "N=C(N)c1ccc(N=Nc2c(O)ccc3c2[nH]c2ccccc23)cc1"
result = "> 100 µM"

[[record]]
item_smiles = "Cc1cc(C)cc(Nc2cc(=O)[nH]c(=O)[nH]2)c1"
result = "> 100 µM"

[[record]]
item_smiles = "O=C1c2ccccc2C(=O)N1Cc1ccccc1-c1c2nc(c(-c3ccccc3CN3C(=O)c4ccccc4C3=O)c3ccc([nH]3)c(-c3ccccc3CN3C(=O)c4ccccc4C3=O)c3nc(c(-c4ccccc4CN4C(=O)c5ccccc5C4=O)c4ccc1[nH]4)C=C3)C=C2"
result = "> 100 µM"


Give reported TGI value for Cc1ccc2nc(Cl)c(/C=N/N3C(=O)/C(=C/c4ccccc4S)N=C3c3ccccc3)cc2c1
79.4 µM

---

- System: HCT-116 colon
- test-summary: NCI tumour cell line growth inhibition, 48 h
measurement-name: TGI

Example entries and their recorded answers appear below.
[[record]]
compound = "CCOC(=O)/C=C(/C(=O)OCC)n1ccc(N)nc1=O"
measurement_name = "TGI"
result = "> 100 µM"

[[record]]
compound = "C[C@]12CC[C@@H]3c4ccc(O)cc4CC[C@H]3[C@@H]1CC[C@@H]2NS(=O)(=O)c1cccc(F)c1"
measurement_name = "TGI"
result = "7.33 µM"

[[record]]
compound = "O=C(OCC1OC2OC(c3ccccc3)(n3ccc4c([N+](=O)[O-])ccnc43)OC2C1OC(=O)c1ccccc1)c1ccccc1 (stereo not given)"
measurement_name = "TGI"
result = "> 100 µM"

[[record]]
compound = "CC1=NN2C(=N)/C(=C/c3ccco3)C(=O)N=C2S1"
measurement_name = "TGI"
result = "> 100 µM"

[[record]]
compound = "C=CCCC(=O)CC(O)(C(F)(F)F)C(F)(F)F"
measurement_name = "TGI"
result = "> 100 µM"


Give reported TGI value for COc1ccc2c(c1)[C@@]13CCCC[C@H]1[C@@H](C2)N(C)CC3=O
29.7 µM

Give reported TGI value for O=C1NC(N/N=C/C(O)C(O)C(O)CO)=N/C1=C\c1ccco1 (stereo not given)
> 100 µM

Give reported TGI value for O=C(Nc1ccc(CO)cc1)c1coc2ccccc2c1=O
> 100 µM

Give reported TGI value for CN1NC(=Nc2ccccc2)Sc2c1cnn(-c1ccccc1)c2=O
> 100 µM

Give reported TGI value for COc1cc(Nc2c3ccccc3nc3ccccc23)ccc1NS(C)(=O)=O
> 100 µM

Give reported TGI value for C[C@]12CC[C@H](O)C[C@H]1CC[C@@H]1[C@@H]2CC[C@]2(C)[C@@H](C3=CC(=O)OC3)CC[C@]12O
0.0663 µM

Give reported TGI value for CCc1ccc2oc(-c3cc(O)c(-c4nc5cc(CC)ccc5o4)cc3O)nc2c1
> 100 µM

Give reported TGI value for O=c1[nH]nc(Cc2ccc([N+](=O)[O-])cc2)n1CCO
> 100 µM

Give reported TGI value for CCOC(=O)/C1=C(\C)N(c2ccc(C)cc2)C(=O)c2ccccc2C(=O)c2c(OC(C)=O)ccc(OC(C)=O)c21
35.9 µM

Give reported TGI value for NC1=NS(=O)(=O)Nc2nc(-c3ccc(Cl)cc3)c(-c3ccc(Cl)cc3)nc21
> 100 µM

---

- Test system: ACHN renal
- test-summary: NCI tumour cell line growth inhibition, 48 h; in the data active means GI50 below about 0.43 µM; inactive means the rest
Tick one outcome: Yes = active, No = inactive

The examples below pair each entry with its known result.
[[record]]
item_smiles = "Cc1cc[c-]cc1.Fc1c[c-]c(-c2ccccn2)c(F)c1.[Pt+2].c1ccc(P(C[PH+](c2ccccc2)c2ccccc2)c2ccccc2)cc1"
label_value = "No"

[[record]]
item_smiles = "O=C(Nc1ccc(-n2cc(-c3ccncc3)c(-c3ccc(Cl)c(O)c3)n2)cc1)Nc1ccc(Cl)c(C(F)(F)F)c1"
label_value = "No"

[[record]]
item_smiles = "COc1ccc(-c2ccc(/C=N/n3c(C)n[nH]c3=S)o2)c([N+](=O)[O-])c1"
label_value = "No"

[[record]]
item_smiles = "O=C(/C=C/c1cc(CN2CCOCC2)c(O)c2ncccc12)c1cc(CN2CCOCC2)c(O)c2ncccc12"
label_value = "Yes"

[[record]]
item_smiles = "O=C(Nc1ccc(-c2ccccc2)cc1)C1CCN(S(=O)(=O)c2ccccc2Cl)CC1"
label_value = "No"


Can you look up the reported call for Cc1cn2c(/C=C3\C(=O)N(C)c4ccc(O)cc43)c(C)nc2s1 for me?
No

Can you look up the reported call for C=C1C(=O)O[C@H]2[C@H]1CC/C(COC(=O)c1ccc(Cl)nc1)=C\CC[C@@]1(C)O[C@@H]21 for me?
No

Can you look up the reported call for COc1ccc2ncn(-c3cc(O[C@H](C)c4ccccc4Cl)c(C(N)=O)s3)c2c1 for me?
No

---

- System: HOP-92 NSCLC
- test-summary: NCI tumour cell line growth inhibition, 48 h
measurement-name: TGI (µM)
Unit µM implied. Number only.

[[record]]
molecule = "CC(C)N=c1cc2n(-c3ccc(Cl)cc3)c3ccccc3nc-2cc1Nc1ccc(Cl)cc1"
measurement_name = "TGI"
display_unit = "µM"
result_number = 2.83

[[record]]
molecule = "[Au+].[Au+].[Au+].[c-]1nccn1Cc1ccccc1.[c-]1nccn1Cc1ccccc1.[c-]1nccn1Cc1ccccc1"
measurement_name = "TGI"
display_unit = "µM"
result_number = 4.25

[[record]]
molecule = "NC(N)=NCCCCCNc1noc(Cc2c[nH]c3cc(Br)ccc23)n1"
measurement_name = "TGI"
display_unit = "µM"
result_number = 46.7

[[record]]
molecule = "CN(CCCNC(=O)Cc1ccc2ccc3cccc4ccc1c2c34)CCCNc1cc(-c2ccc3ccccc3c2)nc2ccccc12"
measurement_name = "TGI"
display_unit = "µM"
result_number = 3.02


Give reported TGI value for O=C(CSC(c1ccccc1)c1ccccc1)N/N=C/c1ccc(Cl)cc1Cl
83.4

Give reported TGI value for CCOP(=O)(OCC)c1c(C(=O)OC)cc(=O)[nH]c1-c1ccc(C)cc1
12.3

Give reported TGI value for Cc1c(C2=C(Br)C(=O)N(C)C2=O)c(=O)n(C)c(=O)n1C
34.4

Give reported TGI value for CC12CCCCC1(C)C2Sc1ccccc1 (configuration not stated)
97

Give reported TGI value for CCN1C(=O)C(=C/C=C/c2ccc([N+](=O)[O-])cc2)C(=O)N(CC)C1=S
34.2

---

- Tested on: NCI-H522 lung
- test-summary: NCI tumour cell line growth inhibition, 48 h
measurement-name: TGI

Example entries and their recorded answers appear below.
[[record]]
compound = "O=C(Nc1cc(Cl)ccc1Cl)C(=O)C(c1cnc2ccccc2n1)[N+](=O)[O-] (stereo not given)"
test_system = "NCI-H522 lung"
result = "> 100 µM"

[[record]]
compound = "Cc1cc(S(=O)(=O)N/N=C(\\Sc2cc(Cl)c(C)cc2S(N)(=O)=O)c2ccc(Cl)cc2)c(Cl)cc1Cl"
test_system = "NCI-H522 lung"
result = "> 100 µM"

[[record]]
compound = "O=C(O)c1ccc(S(=O)(=O)c2ccccc2[N+](=O)[O-])cc1"
test_system = "NCI-H522 lung"
result = "> 10 µM"

[[record]]
compound = "Cc1ccc(S(=O)(=O)NCCNc2nccc(-c3c(-c4ccc(F)cc4)nc4sccn34)n2)cc1"
test_system = "NCI-H522 lung"
result = "> 100 µM"

[[record]]
compound = "NC(=O)NNC(=O)c1nc[nH]c1[N+](=O)[O-]"
test_system = "NCI-H522 lung"
result = "> 100 µM"


For the next question, use this compound.
Give reported TGI value for Nc1ccc2[nH]c3c(-c4ccccc4)nccc3c2c1
> 100 µM

---

- Tested on: HCT-15 colon
- test-summary: NCI tumour cell line growth inhibition, 48 h
Listed here: items and their measured TGI.

Example entries and their recorded answers appear below.
[[record]]
compound = "O=C(Nc1ccc(Br)cc1)c1ccc(Cl)c(Cl)c1"
measurement_name = "TGI"
result = "> 100 µM"

[[record]]
compound = "NC1=NS(=O)(=O)Nc2nc(-c3ccc([N+](=O)[O-])o3)[nH]c21"
measurement_name = "TGI"
result = "44.1 µM"

[[record]]
compound = "Nn1c(CCCCCCCCc2nnc(COc3ccc(Cl)cc3)n2N)nnc1COc1ccc(Cl)cc1"
measurement_name = "TGI"
result = "> 100 µM"

[[record]]
compound = "O=C1c2ccccc2C(=O)N1Cc1ccccc1-c1c2nc(c(-c3ccccc3CN3C(=O)c4ccccc4C3=O)c3ccc([nH]3)c(-c3ccccc3CN3C(=O)c4ccccc4C3=O)c3nc(c(-c4ccccc4CN4C(=O)c5ccccc5C4=O)c4ccc1[nH]4)C=C3)C=C2"
measurement_name = "TGI"
result = "> 100 µM"

[[record]]
compound = "O=c1[nH]c2cc(Cl)ccc2nc1/C(=N\\O)C(O)c1ccc(Cl)cc1Cl (centres undefined)"
measurement_name = "TGI"
result = "> 100 µM"

[[record]]
compound = "OCC1OC(n2cnc3c(Cl)nc(Nc4ccccc4)nc32)CC1O (centres undefined)"
measurement_name = "TGI"
result = "60.8 µM"

[[record]]
compound = "NCCN=C(Nc1ccccc1)Nc1ccccc1"
measurement_name = "TGI"
result = "> 100 µM"

[[record]]
compound = "O=c1c2ncn(COCCCl)c2n(-c2ccccc2)c(=S)n1-c1ccccc1"
measurement_name = "TGI"
result = "> 100 µM"


Give reported TGI value for O=C(COc1ccc(/C=C2\CSc3ccccc3C2=O)cc1)Nc1nccs1
14.7 µM

All values here come from PubChem BioAssay (NCI).
